Tested on: Plasmodium berghei
Test: Luciferase/luciferin-expressing antifolate-resistant parasites were used to infect a culture of HepG2 cells that were pre-incubated with compounds. Infected hepatocytes emit light due to the luciferase reaction. Assay results are presented as the percent inhibition of light emission compared to control. […]
Format: functional
Condition notes: sporozoite, HEPG2TOX_HILL_SLOPE 3.25, HEPG2TOX_R_SQUARED 0.784, PBLUC_HILL_SLOPE 3.78, PBLUC_R_SQUARED 0.178, read-out: LUCIFERASE INFECTION ASSAY - IC50
pIC50: −log10 of the molar value.
Parameter: pIC50

structure_smiles=O=C(Nc1cccc(Cl)c1)C1=COC2=NC(=O)N(Cc3cccc(Cl)c3)CCN12 parameter=pIC50 measurement=5.16
